Measured values drawn from patent US10729738B2 for this set.

- assayed-system: human serum albumin Cys-34 (Homo sapiens, UniProt P02768)
- Sequence (P02768 25-609): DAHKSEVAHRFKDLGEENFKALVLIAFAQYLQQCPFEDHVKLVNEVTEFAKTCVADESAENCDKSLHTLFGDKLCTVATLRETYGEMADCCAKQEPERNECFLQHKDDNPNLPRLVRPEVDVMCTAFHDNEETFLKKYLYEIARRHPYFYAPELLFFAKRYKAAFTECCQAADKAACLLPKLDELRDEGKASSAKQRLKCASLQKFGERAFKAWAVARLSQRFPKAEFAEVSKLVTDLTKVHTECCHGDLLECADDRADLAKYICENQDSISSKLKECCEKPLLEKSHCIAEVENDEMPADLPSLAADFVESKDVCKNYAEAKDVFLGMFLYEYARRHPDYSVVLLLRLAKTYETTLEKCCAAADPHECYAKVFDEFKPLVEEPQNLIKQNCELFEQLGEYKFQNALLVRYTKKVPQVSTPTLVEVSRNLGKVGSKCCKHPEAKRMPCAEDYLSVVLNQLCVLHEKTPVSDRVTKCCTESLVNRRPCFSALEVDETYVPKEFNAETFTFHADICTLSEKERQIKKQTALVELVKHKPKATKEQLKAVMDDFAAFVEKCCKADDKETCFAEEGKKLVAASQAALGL
- assay-remarks: Conjugation of activated disulfide-MMAE molecules to human serum albumin (Conjugate Ratio, LC/MS)
- measurement-context: disulfide MMAE compound at 10 molar equivalents relative to HSA, 75 mM Tris pH 8.5, ~16 hours at room temperature
Where a SMILES comes first, the peptide text is derived from it. [ ]: non-standard residue; d: D form. The star is where a group is joined. Dolaproine = CO[C@@H]([C@@H]1CCCN1)[C@@H](C)C(=O)O; Dil = CC[C@H](C)[C@H](NC)[C@@H](CC(=O)O)OC; X13 = CC(C)(COC(=O)*)SSc1nc2cnccc2[nH]1; X17 = Cn1c(SSC(C)(C)COC(=O)*)nc2ccccc21; X2 = C[C@@H](N*)[C@@H](O)c1ccccc1; NMeV = CN[C@H](C(=O)O)C(C)C
Property: HAS CR (HSA Conjugation Ratio); scope: individual molecules
measure-name: HAS CR (HSA Conjugation Ratio)

molecule: CC[C@H](C)[C@@H]([C@@H](CC(=O)N1CCC[C@H]1[C@H](OC)[C@@H](C)C(=O)N[C@H](C)[C@@H](O)c1ccccc1)OC)N(C)C(=O)[C@@H](NC(=O)[C@H](C(C)C)N(C)C(=O)OCC(C)(C)SSc1nc2cnccc2[nH]1)C(C)C (X13-[NMeV]V[Dil][Dolaproine]-X2)
assayed-system: human serum albumin Cys-34 (Homo sapiens, UniProt P02768)
recorded-result: 0.86
--
molecule: CC[C@H](C)[C@@H]([C@@H](CC(=O)N1CCC[C@H]1[C@H](OC)[C@@H](C)C(=O)N[C@H](C)[C@@H](O)c1ccccc1)OC)N(C)C(=O)[C@@H](NC(=O)[C@H](C(C)C)N(C)C(=O)OCC(C)(C)SSc1nc2ccccc2n1C)C(C)C (X17-[NMeV]V[Dil][Dolaproine]-X2)
assayed-system: human serum albumin Cys-34 (Homo sapiens, UniProt P02768)
recorded-result: 0.87
